Origin of values: patent US9834543B2

TESTED SYSTEM: human Nav1.7 (Homo sapiens (Human), UniProt Q15858)
Sequence (Q15858 with tags, fused parts or gaps limits assumed): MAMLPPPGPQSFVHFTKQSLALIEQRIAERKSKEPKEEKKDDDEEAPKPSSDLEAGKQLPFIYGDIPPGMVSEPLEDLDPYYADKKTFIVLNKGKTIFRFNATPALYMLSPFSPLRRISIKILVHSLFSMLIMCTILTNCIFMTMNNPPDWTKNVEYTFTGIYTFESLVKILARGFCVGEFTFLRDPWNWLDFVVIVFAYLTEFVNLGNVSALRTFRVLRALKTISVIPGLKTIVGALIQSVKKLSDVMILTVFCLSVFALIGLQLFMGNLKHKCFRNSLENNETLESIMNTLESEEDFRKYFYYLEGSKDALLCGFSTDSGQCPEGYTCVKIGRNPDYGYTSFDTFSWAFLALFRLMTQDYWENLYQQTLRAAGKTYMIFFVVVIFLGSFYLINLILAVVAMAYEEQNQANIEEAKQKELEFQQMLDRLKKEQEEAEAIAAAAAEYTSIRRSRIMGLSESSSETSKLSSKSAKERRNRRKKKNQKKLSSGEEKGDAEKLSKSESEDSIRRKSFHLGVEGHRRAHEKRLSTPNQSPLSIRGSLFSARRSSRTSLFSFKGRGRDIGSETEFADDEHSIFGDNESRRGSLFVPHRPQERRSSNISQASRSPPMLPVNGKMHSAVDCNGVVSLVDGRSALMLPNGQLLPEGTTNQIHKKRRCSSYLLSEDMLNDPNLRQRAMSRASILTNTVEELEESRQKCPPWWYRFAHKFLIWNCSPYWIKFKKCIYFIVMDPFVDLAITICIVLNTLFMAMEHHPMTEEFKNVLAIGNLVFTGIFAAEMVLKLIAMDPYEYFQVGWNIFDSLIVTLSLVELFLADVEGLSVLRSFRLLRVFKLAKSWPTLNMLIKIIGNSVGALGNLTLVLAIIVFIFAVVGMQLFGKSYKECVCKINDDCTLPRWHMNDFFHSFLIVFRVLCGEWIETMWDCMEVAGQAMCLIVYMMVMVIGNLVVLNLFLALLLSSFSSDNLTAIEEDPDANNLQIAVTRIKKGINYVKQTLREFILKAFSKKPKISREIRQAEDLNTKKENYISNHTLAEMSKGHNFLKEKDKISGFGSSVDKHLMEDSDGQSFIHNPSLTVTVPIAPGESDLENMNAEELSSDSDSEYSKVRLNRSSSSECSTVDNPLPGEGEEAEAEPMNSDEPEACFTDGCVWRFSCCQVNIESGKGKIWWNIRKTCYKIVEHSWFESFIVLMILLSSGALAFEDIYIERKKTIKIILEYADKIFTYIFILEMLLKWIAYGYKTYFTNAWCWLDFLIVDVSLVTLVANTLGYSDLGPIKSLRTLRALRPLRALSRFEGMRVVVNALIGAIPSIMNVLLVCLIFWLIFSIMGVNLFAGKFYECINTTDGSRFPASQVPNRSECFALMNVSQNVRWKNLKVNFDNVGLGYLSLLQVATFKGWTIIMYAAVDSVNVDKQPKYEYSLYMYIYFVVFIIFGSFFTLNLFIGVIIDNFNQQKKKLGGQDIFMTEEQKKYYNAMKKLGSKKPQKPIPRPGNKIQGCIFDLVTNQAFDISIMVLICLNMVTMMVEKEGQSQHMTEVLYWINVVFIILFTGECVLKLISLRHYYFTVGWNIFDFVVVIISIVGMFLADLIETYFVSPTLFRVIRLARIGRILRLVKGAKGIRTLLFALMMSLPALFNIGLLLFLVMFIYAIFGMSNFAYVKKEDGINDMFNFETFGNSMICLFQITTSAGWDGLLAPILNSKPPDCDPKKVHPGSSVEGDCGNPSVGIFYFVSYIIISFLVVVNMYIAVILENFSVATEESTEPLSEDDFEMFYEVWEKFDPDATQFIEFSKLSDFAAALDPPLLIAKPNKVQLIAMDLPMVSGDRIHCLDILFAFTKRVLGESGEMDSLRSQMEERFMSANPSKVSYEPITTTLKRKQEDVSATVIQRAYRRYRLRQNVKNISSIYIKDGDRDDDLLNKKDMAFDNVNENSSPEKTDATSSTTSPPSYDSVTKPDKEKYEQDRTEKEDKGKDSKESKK
ASSAY DETAILS: FLIPR or FLIPR TETRA sodium dye assay with KCl and test article pre-incubation (sodium mobilization)
Type: cell-based
# label = T if IC50 < 0.4 µM else F

Solved entries (count: 2):
CPD SMILES: Cn1ncc2c(Oc3ccc(-c4cc([C@H](O)CO)cc(C(N)=O)n4)cc3)ccc(Cl)c21
GROUP: F
--
CPD SMILES: Cn1ncc2c(Oc3ccc(-c4cccc(C(N)=O)n4)cc3)ccc(Cl)c21
GROUP: F

Task: Is the reported IC50 for Cn1ncc2c(Oc3ccc(-c4cc([C@@H](O)CO)cc(C(N)=O)n4)cc3)ccc(F)c21 strictly below 0.4 µM?
Result: F

Task: IC50 strictly < 0.4 µM for this molecule? Cn1ncc2c(Oc3ccc(S(=O)(=O)Nc4nncs4)cc3)ccc(Cl)c21
Result: F

Task: Answer whether the molecule Cn1ncc2c(Oc3ccc(-c4nc(C(N)=O)cc([C@H](O)CO)n4)cc3)ccc(Cl)c21 has IC50 strictly less than 0.4 µM
Result: T
